System: human lymphoma cell line Raji
testSummary: Inhibition of cell proliferation (GI50), Raji
Format: cell-based
testParameters: Homo sapiens; Raji cells, 48 h, CellTiter-Glo
Method: Human breast cancer cell lines T-47D, human hepatocellular carcinoma cell line SNU398, human colon carcinoma cell line HCT116, human lung cancer cell line H1299, human leukemia cell line K562, human lymphoma cell line Raji, human B cell lymphoblastoid cell line Ramos, and human Burkitt's lymphoma cell line Namalwa were grown and harvested as in Example 100. […] Plates were then read using a luminescent plate reader (Model SPECTRAfluor Plus, Tecan) to give Ltest values. […]
outcomeMeasure: GI50 (nM)

The cases that follow already have their GI50 on record.
COc1ccc(C2=Nn3c(nnc3-c3ccccc3F)SC2)cc1
247
COc1ccccc1-c1nnc2n1N=C(c1ccc(N3CCOCC3)cc1)CS2
285

P = CCN(CC)c1ccc(C2=Nn3c(nnc3-c3ccc(OC)cc3OC)SC2)cc1
Q = CCOc1ccc(C2=Nn3c(nnc3-c3ccc(Cl)cc3)SC2)cc1
Query: I'm curious, which of these has a smaller GI50 number: P or Q ? Indicate which entry you chose by stating its label.
Result: P
(P: 3 nM, Q: 136 nM)
